- TESTED_ON: Urokinase from human urine (human, UniProt P00749 21-431, limits assumed)
- METHOD_SUMMARY: cell-based or functional assay
Bridges are numbered along the chain shown (N, C = ends). [ ]: non-standard residue; d: D form.
Collected % inhibition at 100 µM values appear next to each entry.

BINDER	% inhibition at 100 µM [%]
cyclo(ICTKSDPAICR[dP]P) (disulfide 2-10) [Example 14]	5.4
FCTKSDPPXCS (HELM PEPTIDE1{F.C.T.K.S.D.P.P.[Cha].C.S.[dP].P}$PEPTIDE1,PEPTIDE1,2:R3-10:R3|PEPTIDE1,PEPTIDE1,1:R1-13:R2$$$V2.0; SMILES C[C@@H](O)[C@@H]1NC(=O)[C@@H]2CSSC[C@H](NC(=O)[C@H](CC3CCCCC3)NC(=O)[C@@H]3CCCN3C(=O)[C@@H]3CCCN3C(=O)[C@H](CC(=O)O)NC(=O)[C@H](CO)NC(=O)[C@H](CCCCN)NC1=O)C(=O)N[C@@H](CO)C(=O)N1CCC[C@@H]1C(=O)N1CCC[C@H]1C(=O)N[C@@H](Cc1ccccc1)C(=O)N2) [Example 16]	3.2
ICTXSDPPICR (HELM PEPTIDE1{I.C.T.[Nle].S.D.P.P.I.C.R.[dP].P}$PEPTIDE1,PEPTIDE1,2:R3-10:R3|PEPTIDE1,PEPTIDE1,1:R1-13:R2$$$V2.0; SMILES CCCC[C@@H]1NC(=O)[C@H]([C@@H](C)O)NC(=O)[C@@H]2CSSC[C@H](NC(=O)[C@H]([C@@H](C)CC)NC(=O)[C@@H]3CCCN3C(=O)[C@@H]3CCCN3C(=O)[C@H](CC(=O)O)NC(=O)[C@H](CO)NC1=O)C(=O)N[C@@H](CCCNC(=N)N)C(=O)N1CCC[C@@H]1C(=O)N1CCC[C@H]1C(=O)N[C@@H]([C@@H](C)CC)C(=O)N2) [Example 59]	5.7
XCTKSDPPICD (HELM PEPTIDE1{[O=C([C@@H](N[*:1])C1CCCCC1)[*:2]].C.T.K.S.D.P.P.I.C.D.[dP].P}$PEPTIDE1,PEPTIDE1,2:R3-10:R3|PEPTIDE1,PEPTIDE1,1:R1-13:R2$$$V2.0; SMILES CC[C@H](C)[C@@H]1NC(=O)[C@@H]2CCCN2C(=O)[C@@H]2CCCN2C(=O)[C@H](CC(=O)O)NC(=O)[C@H](CO)NC(=O)[C@H](CCCCN)NC(=O)[C@H]([C@@H](C)O)NC(=O)[C@@H]2CSSC[C@H](NC1=O)C(=O)N[C@@H](CC(=O)O)C(=O)N1CCC[C@@H]1C(=O)N1CCC[C@H]1C(=O)N[C@@H](C1CCCCC1)C(=O)N2) [Example 39]	2
FCTKSDPPICD (HELM PEPTIDE1{F.C.T.K.S.D.P.P.I.C.D.[dP].P}$PEPTIDE1,PEPTIDE1,2:R3-10:R3|PEPTIDE1,PEPTIDE1,1:R1-13:R2$$$V2.0; SMILES CC[C@H](C)[C@@H]1NC(=O)[C@@H]2CCCN2C(=O)[C@@H]2CCCN2C(=O)[C@H](CC(=O)O)NC(=O)[C@H](CO)NC(=O)[C@H](CCCCN)NC(=O)[C@H]([C@@H](C)O)NC(=O)[C@@H]2CSSC[C@H](NC1=O)C(=O)N[C@@H](CC(=O)O)C(=O)N1CCC[C@@H]1C(=O)N1CCC[C@H]1C(=O)N[C@@H](Cc1ccccc1)C(=O)N2) [Example 2]	0.9
ICTKSDPPXCR (HELM PEPTIDE1{I.C.T.K.S.D.P.P.[Nle].C.R.[dP].P}$PEPTIDE1,PEPTIDE1,2:R3-10:R3|PEPTIDE1,PEPTIDE1,1:R1-13:R2$$$V2.0; SMILES CCCC[C@@H]1NC(=O)[C@@H]2CCCN2C(=O)[C@@H]2CCCN2C(=O)[C@H](CC(=O)O)NC(=O)[C@H](CO)NC(=O)[C@H](CCCCN)NC(=O)[C@H]([C@@H](C)O)NC(=O)[C@@H]2CSSC[C@H](NC1=O)C(=O)N[C@@H](CCCNC(=N)N)C(=O)N1CCC[C@@H]1C(=O)N1CCC[C@H]1C(=O)N[C@@H]([C@@H](C)CC)C(=O)N2) [Example 19]	4
YCTKSDPPICY (HELM PEPTIDE1{Y.C.T.K.S.D.P.P.I.C.Y.[dP].P}$PEPTIDE1,PEPTIDE1,2:R3-10:R3|PEPTIDE1,PEPTIDE1,1:R1-13:R2$$$V2.0; SMILES CC[C@H](C)[C@@H]1NC(=O)[C@@H]2CCCN2C(=O)[C@@H]2CCCN2C(=O)[C@H](CC(=O)O)NC(=O)[C@H](CO)NC(=O)[C@H](CCCCN)NC(=O)[C@H]([C@@H](C)O)NC(=O)[C@@H]2CSSC[C@H](NC1=O)C(=O)N[C@@H](Cc1ccc(O)cc1)C(=O)N1CCC[C@@H]1C(=O)N1CCC[C@H]1C(=O)N[C@@H](Cc1ccc(O)cc1)C(=O)N2) [Example 26]	3.1
FCTKSDPPICS (HELM PEPTIDE1{F.C.T.K.S.D.P.P.I.C.S.[dP].P}$PEPTIDE1,PEPTIDE1,2:R3-10:R3|PEPTIDE1,PEPTIDE1,1:R1-13:R2$$$V2.0; SMILES CC[C@H](C)[C@@H]1NC(=O)[C@@H]2CCCN2C(=O)[C@@H]2CCCN2C(=O)[C@H](CC(=O)O)NC(=O)[C@H](CO)NC(=O)[C@H](CCCCN)NC(=O)[C@H]([C@@H](C)O)NC(=O)[C@@H]2CSSC[C@H](NC1=O)C(=O)N[C@@H](CO)C(=O)N1CCC[C@@H]1C(=O)N1CCC[C@H]1C(=O)N[C@@H](Cc1ccccc1)C(=O)N2) [Example 4]	5.4
cyclo(ICTKSDPAICR[dP]P) (disulfide 2-10) [Example 52]	5.4

Entry source: patent US20140213531A1
